tested on: Ba/F3 EGFR ASV ins cells; assay: Cell proliferation, Ba/F3 EGFR ASV ins (CellTiter-Glo, 72 h); assay type: cell-based; details: Ba/F3 EGFR, 72 h, Ba/F3 EGFR ASV ins, 72 h proliferation; read-out: EGFR Exon20 ASV insertion GI50;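 also: IL3-independent Ba/F3 cells transduced with EGFR V769_D770insASV, cellular ATP luminescence after compound exposure, growth relative to DMSO control with the day-0 baseline reading subtracted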
Readout name: GI50 (nM)

Compound	Readout name	Reported value
C=CC(=O)Nc1cc(Nc2ncnc(Nc3cc4ccn(C)c4cc3C(C)(C)O)n2)c(OC)cc1N(C)CCN(C)C	GI50	19.3
C=CC(=O)Nc1cc(Nc2ncnc(Nc3cc(Cl)c(F)cc3C(C)(C)O)n2)c(OC)cc1N1CCC[C@H]1CN(C)C	GI50	484
C=CC(=O)Nc1cc(Nc2ncnc(Nc3ccc(Cl)c(F)c3C(C)(C)O)n2)c(OC)cc1N(C)CCN(C)C	GI50	84.1
C=CC(=O)Nc1cc(Nc2ncnc(Nc3cc(F)c(F)cc3C(C)(C)O)n2)c(OC)cc1N(C)CCN1CCCCC1	GI50	101
C=CC(=O)Nc1cc(Nc2ncnc(Nc3cc(F)c(F)cc3C(C)(O)CC)n2)c(OC)cc1N1CC[C@@H]1CN(C)C (stereo partly shown)	GI50	44.1
C=CC(=O)Nc1cc(Nc2nccc(Nc3cc(Cl)c(F)cc3C(C)(O)C(F)(F)F)n2)c(OC)cc1N1CC[C@@H](N(C)C)C1 (stereo partly shown)	GI50	92.1
C=CC(=O)Nc1cc(Nc2ncnc(Nc3cc(F)c(C4CC4)cc3C(C)(C)O)n2)c(OC)cc1N1CCC[C@@H]1CN(C)C	GI50	8.2

###

biological target: human EGFR exon 20 V769_D770insASV (Homo sapiens, UniProt P00533, INS769ASV); experiment: EGFR Exon20 ASV insertion cellular phosphorylation inhibition (MSD pEGFR Y1068/total EGFR); conditions: Ba/F3 EGFR ASV ins cells, 4 h compound, p-EGFR(Y1068)/total EGFR;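 also: electrochemiluminescent readout on an MSD SECTOR Imager, IL3-independent transduced cells in medium with 1% FBS, compound concentration series at 37 °C and 5% CO2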
Sequence (P00533 with tags, fused parts or gaps INS769ASV): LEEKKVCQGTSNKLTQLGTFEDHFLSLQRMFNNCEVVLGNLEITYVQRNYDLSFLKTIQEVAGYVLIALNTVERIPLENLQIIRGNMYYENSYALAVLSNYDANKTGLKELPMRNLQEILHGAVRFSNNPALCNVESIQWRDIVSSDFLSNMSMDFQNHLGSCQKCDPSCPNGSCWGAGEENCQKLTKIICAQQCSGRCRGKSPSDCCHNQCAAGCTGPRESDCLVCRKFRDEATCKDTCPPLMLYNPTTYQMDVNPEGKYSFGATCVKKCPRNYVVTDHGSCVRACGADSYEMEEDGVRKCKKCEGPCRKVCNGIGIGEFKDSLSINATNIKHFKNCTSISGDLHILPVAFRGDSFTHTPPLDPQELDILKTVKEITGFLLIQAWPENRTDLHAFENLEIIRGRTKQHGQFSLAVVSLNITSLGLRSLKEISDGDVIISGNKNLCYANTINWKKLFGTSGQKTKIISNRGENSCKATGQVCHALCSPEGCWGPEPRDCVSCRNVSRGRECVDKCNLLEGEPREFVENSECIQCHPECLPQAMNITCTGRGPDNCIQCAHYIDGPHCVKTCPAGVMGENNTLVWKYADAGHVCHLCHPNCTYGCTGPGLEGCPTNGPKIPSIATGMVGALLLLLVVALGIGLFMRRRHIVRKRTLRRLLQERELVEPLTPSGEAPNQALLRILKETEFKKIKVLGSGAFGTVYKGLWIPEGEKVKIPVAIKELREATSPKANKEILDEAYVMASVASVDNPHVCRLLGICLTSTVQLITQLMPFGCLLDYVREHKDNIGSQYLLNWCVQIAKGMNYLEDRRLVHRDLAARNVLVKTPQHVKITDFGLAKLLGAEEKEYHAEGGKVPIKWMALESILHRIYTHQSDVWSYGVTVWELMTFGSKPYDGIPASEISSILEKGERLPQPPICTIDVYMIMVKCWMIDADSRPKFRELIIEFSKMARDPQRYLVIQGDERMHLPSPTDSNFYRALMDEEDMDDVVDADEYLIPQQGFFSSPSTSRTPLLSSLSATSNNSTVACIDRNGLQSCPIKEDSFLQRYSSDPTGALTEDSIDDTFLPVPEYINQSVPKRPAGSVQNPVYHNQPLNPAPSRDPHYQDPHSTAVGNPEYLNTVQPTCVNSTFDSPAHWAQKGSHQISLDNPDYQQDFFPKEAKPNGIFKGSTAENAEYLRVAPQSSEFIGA
pIC50: −log10 of the molar value. Where a name gives a salt, the structure may show the parent alone.
pIC50 values by entry
Readout name: pIC50

Molecule	Reported value
C=CC(=O)Nc1cc(Nc2ncnc(Nc3cc(Cl)c(F)cc3C(C)(C)O)n2)c(OC)cc1N(C)CCN1CCC[C@@H]1C	7.20
C=CC(=O)Nc1cc(Nc2ncnc(Nc3cc(Cl)c(F)cc3C(C)(C)O)n2)c(OC)cc1N1CC[C@H](N(C)C)C1	7.65
C=CC(=O)Nc1cc(Nc2ncnc(Nc3cc(Cl)c(F)cc3C(C)(C)O)n2)c(OC)cc1N1CCC[C@H]1CN(C)C	6.45
C=CC(=O)Nc1cc(Nc2ncnc(Nc3ccc(C)nc3C(C)(C)O)n2)c(OC)cc1N(C)CCN(C)C	7.39
C=CC(=O)Nc1cc(Nc2ncnc(Nc3cc(F)c(F)cc3C(C)(O)CC)n2)c(OC)cc1N1CCC[C@@H]1CN(C)C (stereo partly shown)	8.15
C=CC(=O)Nc1cc(Nc2ncnc(Nc3cc(F)c(F)cc3C(C)(C)O)n2)c(OC)cc1N1CC(CN(C)C)C1	7.06
[2H]C([2H])([2H])N(CCN(C)c1cc(OC)c(Nc2ncnc(Nc3cc(F)c(Cl)cc3C(C)(C)O)n2)cc1NC(=O)C=C)C([2H])([2H])[2H]	8.09
C=CC(=O)Nc1cc(Nc2ncnc(Nc3ccc4[nH]ccc4c3C(C)(C)O)n2)c(OC)cc1N(C)CCN(C)C	7.75
C=CC(=O)Nc1cc(Nc2ncnc(Nc3ccccc3C3(O)COC3)n2)c(OC)cc1N(C)CCN(C)C	7.13
C=CC(=O)Nc1cc(Nc2ncnc(Nc3cc(F)c(F)cc3C(C)(O)CC)n2)c(OC)cc1N1CC[C@@H]2CN(C)C[C@@H]21 (stereo partly shown)	8.00
C=CC(=O)Nc1cc(Nc2nccc(Nc3cc(Cl)c(F)cc3C(C)(C)O)n2)c(OC)cc1N(C)C[C@H]1C[C@H](C)CN1C [Compound 90, formic acid salt]	7.24
C=CC(=O)Nc1cc(Nc2ncnc(Nc3cc(F)c(F)cc3C(C)(O)CC)n2)c(OC)cc1N1CC[C@@H]1CN(C)C (stereo partly shown)	8.01
C=CC(=O)Nc1cc(Nc2ncnc(Nc3cc(F)c(C4CC4)cc3C(C)(C)O)n2)c(OC)cc1N1CCC[C@@H]1CN(C)C	8.19

###

assay: in vitro; details: both, human, hepatocytes, human hepatocytes Clint (µL/min/10^6cells)

Compound	hepatocyte CLint at 1 µM [µL/min/1e6 cells]
C=CC(=O)Nc1cc(Nc2ncnc(Nc3cc(Cl)c(F)cc3C(C)(O)CC)n2)c(OC)cc1N1CC[C@@H](N(C)C)C1 (stereo partly shown)	3.75

###

GI50 values by entry
system: Ri-1 cells; experiment: BTK (wt) cell proliferation, Ri-1 (CellTiter-Glo, 72 h); assay type: cell-based; settings: Ri-1, 72 h, Ri-1 cells, 72 h, CellTiter-Glo; read-out: BTK WT Ri-1 GI50;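 also: viable cells quantified as cellular ATP luminescence, proliferation normalized to a time-zero plate and the DMSO control, compounds tested across a dilution series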
Structures can show the parent of a compound that is named as a salt.

Molecule	Value operator	GI50 / nM
C=CC(=O)Nc1cc(Nc2ncnc(Nc3cc(F)c(C4CC4)cc3C(C)(C)O)n2)c(OC)cc1N1CCC[C@@H]1CN(C)C [Compound 46]	=	6.49
C=CC(=O)Nc1cc(Nc2ncnc(Nc3cc(F)c(F)cc3C(C)(C)O)n2)c(OC)cc1N(C)CCN(C)C [Compound 4]	=	61.4
C=CC(=O)Nc1cc(Nc2ncnc(Nc3cc(Cl)c(F)cc3C(C)(C)O)n2)c(OC)cc1N(C)CCN(C)C [Compound 11]	=	26
C=CC(=O)Nc1cc(Nc2ncnc(Nc3cc(F)c(Cl)cc3C(C)(C)O)n2)c(OC)cc1N1CC[C@@H](N(C)C)C1 [Compound 51]	=	10.3
Cc1cc(C(=O)Nc2nc3cccc(Cl)c3n2[C@@H]2CCCCN(C(=O)/C=C/CN(C)C)C2)ccn1 [EGF816, reference compound]	=	897
C=CC(=O)Nc1cc(Nc2ncnc(Nc3cc(F)c(F)cc3C(C)(O)CC)n2)c(OC)cc1N1CCC[C@H]1CN(C)C (some centres unmarked) [Compound 58]	=	372
C=CC(=O)Nc1cc(Nc2ncnc(Nc3cc(F)c(F)cc3C(C)(C)O)n2)c(OC)cc1N(C)CCN1CCCC1 [Compound 18]	=	446
C=CC(=O)Nc1cc(Nc2ncnc(Nc3cnc(C)cc3C(C)(C)O)n2)c(OC)cc1N(C)CCN(C)C [Compound 6]	=	289
C=CC(=O)Nc1cc(Nc2ncnc(Nc3cc(Cl)c(Cl)cc3C(C)(C)O)n2)c(OC)cc1N1CC[C@@H]1CN(C)C [Compound 54]	=	9.97
C=CC(=O)Nc1cc(Nc2ncnc(Nc3cc(F)c(F)cc3C(C)(C)O)n2)c(OC)cc1N1CC[C@@H]2CN(C)C[C@@H]21 [Compound 17]	=	28
C=CC(=O)Nc1cc(Nc2nccc(Nc3cc(Cl)c(F)cc3C(C)(C)O)n2)c(OC)cc1N1CC[C@@H](NC)C1 [Compound 80, TFA salt]	>	3000
C=CC(=O)Nc1cc(Nc2nccc(Nc3cc(Cl)c(F)cc3C(C)(C)O)n2)c(OC)cc1N1C[C@@H](F)[C@@H](N(C)C)C1 [Compound 79]	=	80.9
C=CC(=O)Nc1cc(Nc2ncnc(Nc3cc(F)c(C4CC4)cc3C(C)(C)O)n2)c(OC)cc1N(C)CCN(C)C [Compound 34]	=	16.6
C=CC(=O)Nc1cc(Nc2ncnc(Nc3cc4ccn(C)c4cc3C(C)(C)O)n2)c(OC)cc1N(C)CCN(C)C [Compound 32]	=	0.71

###

molecular target: WT EGFR (Homo sapiens, UniProt P00533); experiment: WT EGFR cellular phosphorylation inhibition in A-431 (hEGF stimulated, MSD); conditions: A431 cells, 4 h compound, then 100 ng/ml hEGF 10 min;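 also: electrochemiluminescence read-out of EGFR Tyr1068 phosphorylation expressed as ratio to total EGFR, cells kept in medium with 1% FBS, compounds tested as a concentration series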
Sequence (P00533 25-1210): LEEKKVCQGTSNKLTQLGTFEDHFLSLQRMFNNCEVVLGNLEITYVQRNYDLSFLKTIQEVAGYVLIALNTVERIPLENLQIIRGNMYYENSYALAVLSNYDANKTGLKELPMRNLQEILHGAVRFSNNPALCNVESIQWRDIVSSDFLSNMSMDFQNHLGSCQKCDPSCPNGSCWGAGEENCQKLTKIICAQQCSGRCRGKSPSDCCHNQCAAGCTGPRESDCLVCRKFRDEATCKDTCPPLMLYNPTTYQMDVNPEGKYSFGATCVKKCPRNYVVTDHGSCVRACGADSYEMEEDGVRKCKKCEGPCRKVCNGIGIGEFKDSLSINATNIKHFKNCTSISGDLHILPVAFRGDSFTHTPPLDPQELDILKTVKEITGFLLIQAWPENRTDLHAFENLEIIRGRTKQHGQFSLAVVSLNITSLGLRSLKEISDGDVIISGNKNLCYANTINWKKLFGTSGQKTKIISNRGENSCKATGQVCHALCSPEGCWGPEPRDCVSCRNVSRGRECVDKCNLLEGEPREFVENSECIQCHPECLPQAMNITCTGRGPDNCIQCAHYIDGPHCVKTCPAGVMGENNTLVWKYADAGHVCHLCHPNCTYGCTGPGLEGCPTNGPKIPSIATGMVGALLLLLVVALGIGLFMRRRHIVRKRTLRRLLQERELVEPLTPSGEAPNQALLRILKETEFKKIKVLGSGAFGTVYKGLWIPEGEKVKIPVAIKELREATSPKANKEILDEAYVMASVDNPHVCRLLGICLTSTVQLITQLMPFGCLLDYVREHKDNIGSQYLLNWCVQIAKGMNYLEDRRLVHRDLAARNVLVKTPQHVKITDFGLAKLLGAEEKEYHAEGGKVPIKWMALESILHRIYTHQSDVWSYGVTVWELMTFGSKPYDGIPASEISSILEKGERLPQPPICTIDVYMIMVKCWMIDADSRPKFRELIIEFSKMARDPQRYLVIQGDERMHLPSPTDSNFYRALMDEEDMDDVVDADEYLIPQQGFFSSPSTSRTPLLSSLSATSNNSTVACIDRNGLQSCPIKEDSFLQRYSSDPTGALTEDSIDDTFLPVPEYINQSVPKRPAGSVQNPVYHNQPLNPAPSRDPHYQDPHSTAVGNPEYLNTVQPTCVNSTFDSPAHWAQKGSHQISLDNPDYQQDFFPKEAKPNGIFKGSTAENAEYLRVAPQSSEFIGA
Counter-ions that a name gives are not always drawn.
Readout name: IC50 (nM)

Compound	Reported value
C=CC(=O)Nc1cc(Nc2nccc(Nc3cc(Cl)c(F)cc3C(C)(C)O)n2)c(OC)cc1N1C[C@@H]2CN(C)[C@@H]2C1 [Compound 97, formic acid salt]	160
C=CC(=O)Nc1cc(Nc2ncnc(Nc3cc(Cl)c(F)cc3C(C)(C)O)n2)c(OC)cc1N1CC[C@@H]2CN(C)C[C@@H]21	42.1
C=CC(=O)Nc1cc(Nc2nccc(Nc3cc(Cl)c(F)cc3C(C)(C)O)n2)c(OC)cc1N1CC[C@H](N(C)C)C1	362
C=CC(=O)Nc1cc(Nc2ncc(C#N)c(Nc3cc(Cl)c(F)cc3C(C)(C)O)n2)c(OC)cc1N1CC[C@@H](N(C)C)C1	68.5
C=CC(=O)Nc1cc(Nc2ncnc(Nc3cc(Cl)c(F)cc3C(C)(O)CC)n2)c(OC)cc1N1CC[C@@H](N(C)C)C1 (single isomer, unassigned) [Compound 70]	71.2
C=CC(=O)Nc1cc(Nc2ncnc(Nc3cc(Cl)c(F)cc3C(C)(C)O)n2)c(OC)cc1N(C)CCN1CCCC1	45.3
C=CC(=O)Nc1cc(Nc2ncnc(Nc3cc(Cl)c(F)cc3C(C)(C)O)n2)c(OC)cc1N1CCC[C@@H]1CN(C)C	5.5
C=CC(=O)Nc1cc(Nc2ncnc(Nc3cc(Cl)c(F)cc3C(C)(C)O)n2)c(OC)cc1N(C)C[C@@H]1CCCN1C	30.9
C=CC(=O)Nc1cc(Nc2nccc(Nc3cc(Cl)c(F)cc3C(C)(O)CC)n2)c(OC)cc1N1CC[C@@H](N(C)C)C1 (single isomer, unassigned) [Compound 77]	303
C=CC(=O)Nc1cc(Nc2ncnc(Nc3cc(F)c(F)cc3C(C)(O)CC)n2)c(OC)cc1N1CC[C@H]2CN(C)C[C@H]21 (stereo partly shown)	1110
C=CC(=O)Nc1cc(Nc2nccc(Nc3cc(Cl)c(F)cc3C(C)(C)O)n2)c(OC)cc1N1CC[C@@H]1CN(C)C	139
C=CC(=O)Nc1cc(Nc2ncnc(Nc3cc(Cl)c(Cl)cc3C(C)(C)O)n2)c(OC)cc1N(C)CCN(C)C	8.2
C=CC(=O)Nc1cc(Nc2ncnc(Nc3cc(F)c(Cl)c(F)c3C(C)(C)O)n2)c(OC)cc1N(C)CCN(C)C	47.6
